Value source: patent US20220177583A1

study system: T1, human CLDN6, endogenously expressed on cancer cell lines (human, UniProt P56747 1-220)
T1 construct: also called Endogenous CLDN6+; CLDN6 on ARK2, OVCA429, UMUC4 cells
T1 sequence: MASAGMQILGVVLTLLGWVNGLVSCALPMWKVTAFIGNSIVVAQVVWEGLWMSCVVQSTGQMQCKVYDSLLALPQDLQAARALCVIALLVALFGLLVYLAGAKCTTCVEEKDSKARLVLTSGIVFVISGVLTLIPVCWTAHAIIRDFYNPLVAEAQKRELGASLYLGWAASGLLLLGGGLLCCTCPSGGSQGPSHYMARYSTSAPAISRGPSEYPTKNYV
experimental protocol: FACS, ARK2 cells, 1.5 ug Ab
The reader will find reported FACS signal values listed item by item below.
Would you mind answering with just the numeric figure?

binder	FACS signal
AB11-2 (antibody, V domains shown, Humanized; also called humanized AB 11-2) VH: EVQLVESGGGLVQPGGSLRLSCAASGFTFSSFGMHWVRQAPGKGLEWVAYISSDSRTIYYADSVKGRFTISRDNAKNSLYLQMNSLRAEDTAVYYCARDYGRTYEAYWGQGTLVTVSS VL: DIVMTQSPDSLAVSLGERATINCRASKSVSTSGYSYIHWYQQKPGQPPKLLIYLASNLESGVPDRFSGSGSGTDFTLTISSLQAEDVAVYYCQHSRELPLTFGQGTKLEIK	1940
AB3-7 (antibody, V domains shown, Humanized; also called humanized AB3-7; AB23) VH: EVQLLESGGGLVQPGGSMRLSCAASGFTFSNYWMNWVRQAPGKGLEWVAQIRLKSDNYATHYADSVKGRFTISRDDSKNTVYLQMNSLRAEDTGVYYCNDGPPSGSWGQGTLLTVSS VL: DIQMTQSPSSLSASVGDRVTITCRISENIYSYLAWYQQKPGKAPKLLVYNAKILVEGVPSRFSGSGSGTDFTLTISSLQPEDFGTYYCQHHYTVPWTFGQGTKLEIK	90400
AB1-6 (antibody, V domains shown, Humanized; also called humanized AB 1-6) VH: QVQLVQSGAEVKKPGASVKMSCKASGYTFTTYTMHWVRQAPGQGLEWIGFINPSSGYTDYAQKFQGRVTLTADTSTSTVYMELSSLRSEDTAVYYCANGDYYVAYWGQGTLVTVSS VL: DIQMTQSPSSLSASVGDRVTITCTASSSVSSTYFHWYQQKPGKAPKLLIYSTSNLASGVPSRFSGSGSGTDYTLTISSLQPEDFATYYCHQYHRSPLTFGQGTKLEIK	7740
AB18-6 (antibody, V domains shown, Humanized; also called humanized AB 18-6) VH: QVQLVQSGAEVKKPGASVKISCKASGYSFTGYNMNWVRQAPGQGLEWIGNIDPYYGGSTYAQKFQGRATLTVDTSTSTAYMELSSLRSEDTAVYYCARERSGYVFSAMDYWGQGTLVTVSS VL: DIVMTQSPDSLAVSLGERVTMNCKSSQSVLFSSNQKNYLAWYQQKPGQPPKLLIYWASTRESGVPDRFSGSGSGTDFTLTISSVQAEDVAVYYCHQYLSSRTFGQGTKLEIK	1940
AB4-9 (antibody, V domains shown, Humanized; full-length IgG; see note of AB4-8; also called humanized AB 4-9) VH: QVQLVQSGAEVKKPGASVKMSCKASGYTFTSYTMHWIRQAPGQGLEWIGYINPSSTYTHYIKKFKDRATLTADTSTSTAYMELSSLRSEDTAVYYCSRGELGGFAYWGQGTLVTVSS VL: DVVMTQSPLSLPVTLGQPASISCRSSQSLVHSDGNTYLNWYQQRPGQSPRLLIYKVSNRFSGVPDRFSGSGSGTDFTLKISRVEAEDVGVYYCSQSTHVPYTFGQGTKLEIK	7790
AB4-12 (antibody, V domains shown, Humanized; full-length IgG; see note of AB4-8; also called humanized AB 4-12) VH: QVQLVQSGAEVKKPGASVKMSCKASGYTFTSYTMHWIRQAPGQGQEWIGYINPSSTYTHYIKKFKDRATLTADKSTSTAYMELSSLRSEDTAVYYCSRGELGGFAYWGQGTLVTVSS VL: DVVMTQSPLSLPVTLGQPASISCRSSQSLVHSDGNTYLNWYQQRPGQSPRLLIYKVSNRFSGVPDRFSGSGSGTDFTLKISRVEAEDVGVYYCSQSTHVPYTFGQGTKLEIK	24200
AB1-Chim (antibody, V domains shown, Parental antibody prior to humanization ('chim'); also called pre-humanized form of AB1) VH: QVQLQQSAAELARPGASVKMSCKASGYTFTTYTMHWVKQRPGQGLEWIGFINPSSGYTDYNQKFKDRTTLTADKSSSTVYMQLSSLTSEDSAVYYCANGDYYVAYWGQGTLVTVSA VL: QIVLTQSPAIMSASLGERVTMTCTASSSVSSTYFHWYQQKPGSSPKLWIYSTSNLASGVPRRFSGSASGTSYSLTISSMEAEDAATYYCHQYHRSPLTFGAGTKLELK	51900
AB11-chim (antibody, V domains shown, Parental antibody prior to humanization ('chim'); also called pre-humanized form of AB11) VH: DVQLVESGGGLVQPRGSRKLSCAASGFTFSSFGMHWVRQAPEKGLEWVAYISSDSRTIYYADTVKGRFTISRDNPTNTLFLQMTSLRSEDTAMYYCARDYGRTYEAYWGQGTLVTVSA VL: DIVLTQSPASLAVSLGQRATISCRASKSVSTSGYSYIHWYQQKPGQPPKLLIYLASNLESGVPARFSGSGSGTDFTLNIHPVEEEDAATYYCQHSRELPLTFGAGTKLELK	1260

Kindly consider the entry below.
Consider AB3-2 (antibody, V domains shown, Humanized; also called humanized AB 3-2) VH: EVQLLESGGGLVQPGGSMRLSCAASGFTFSNYWMNWVRQAPGKGLEWVAQIRLKSDNYATHYADSVKGRFTISRDDSKNTVYLQMNSLRAEDTGVYYCNDGPPSGCWGQGTLLTVSS VL: DIQMTQSPSSLSASVGDRVTITCRISENIYSYLAWYQQKPGKAPKLLIYNAKILVEGVPSRFSGSGSGTDFTLTISSLQPEDFATYYCQHHYTVPWTFGQGTKLEIK . Its measured FACS signal is 33600
